test system: human red blood cells (hRBC's); assay: Hemolysis assay; type: cell-based
VALUE TYPE: Hemolysis (H50) (µg/mL)
Numbers only, in µg/mL.

* CC(C)CCC(=O)N1CC(=O)N[C@@H](Cc2ccccc2)CN(C(=O)CCC(C)C)CC(=O)N[C@@H](Cc2ccccc2)CN(C(=O)CCC(C)C)CC(=O)N[C@@H](CCCCN)CN(C(=O)CCc2ccccc2)CC(=O)N[C@@H](CCCCN)CN(C(=O)CCc2ccccc2)CC(=O)N[C@@H](CCCCN)CN(C(=O)CCc2ccccc2)CC(=O)N[C@@H](Cc2ccccc2)CN(CC(N)=O)C(=O)CCC(=O)N[C@@H](Cc2ccccc2)C1 | 300

Switching to the query record.
Task: Request the reported Hemolysis (H50) associated with CC(C)C[C@@H](CN(CC(=O)N[C@@H](CCCCN)CN(CC(N)=O)C(=O)CCc1ccccc1)C(=O)CCc1ccccc1)NC(=O)CN(C[C@H](CCCCN)NC(=O)CN(C[C@H](CCCCN)NC(=O)CN(C[C@H](CC(C)C)NC(=O)CN(C[C@H](CCCCN)NC(=O)CN(C[C@@H](N)CCCCN)C(=O)CCc1ccccc1)C(=O)CCc1ccccc1)C(=O)CCc1ccccc1)C(=O)CCc1ccccc1)C(=O)CCc1ccccc1
Result: 300
